target: TaqRK (Thermus aquaticus, UniProt P19821 1-832, E742R;A743K); assay: EMSA; 5 mM Mg2+; apparent Kd; EMSA: 3 nM DNA, 20 mM Tris-HCl pH 8.8, 10 mM NaCl, 5 mM MgCl2, 14 mM 2-mercaptoethanol, 0.1 mg/ml BSA, 5% glycerol, 40 C, 5 min; 1% agarose gel; conditions: protein: recombinant; label: 32P on 27mer; primer-template; 27 bp duplex, 5' overhang 22 nt on the 49mer template
Sequence (P19821 whole entry E742R/A743K): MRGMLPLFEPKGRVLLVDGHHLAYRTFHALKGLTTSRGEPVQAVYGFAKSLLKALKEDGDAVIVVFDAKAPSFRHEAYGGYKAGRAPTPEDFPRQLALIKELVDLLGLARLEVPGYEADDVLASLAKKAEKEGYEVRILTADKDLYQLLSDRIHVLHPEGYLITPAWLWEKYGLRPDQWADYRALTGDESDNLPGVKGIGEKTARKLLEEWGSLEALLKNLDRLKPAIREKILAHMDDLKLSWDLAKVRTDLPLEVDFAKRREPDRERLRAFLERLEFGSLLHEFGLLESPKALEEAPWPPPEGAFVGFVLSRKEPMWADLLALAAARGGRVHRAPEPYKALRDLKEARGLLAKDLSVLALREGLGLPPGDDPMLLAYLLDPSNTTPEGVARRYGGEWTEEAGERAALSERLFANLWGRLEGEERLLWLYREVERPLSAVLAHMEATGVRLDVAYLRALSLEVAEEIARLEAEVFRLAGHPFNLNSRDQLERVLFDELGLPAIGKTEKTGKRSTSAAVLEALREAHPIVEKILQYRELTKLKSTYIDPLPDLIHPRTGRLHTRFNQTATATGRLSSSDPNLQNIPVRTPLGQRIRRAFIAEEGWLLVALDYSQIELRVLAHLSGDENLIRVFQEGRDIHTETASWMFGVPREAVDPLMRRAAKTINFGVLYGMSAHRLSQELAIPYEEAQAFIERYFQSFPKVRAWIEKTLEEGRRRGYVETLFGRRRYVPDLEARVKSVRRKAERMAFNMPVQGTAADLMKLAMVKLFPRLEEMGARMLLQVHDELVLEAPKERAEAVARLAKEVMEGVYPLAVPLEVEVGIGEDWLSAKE
ENDPOINT NAME: Kd (nM)

• primed DNA (27mer/49mer) (dsDNA) DNA 1: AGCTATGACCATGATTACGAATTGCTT DNA 2: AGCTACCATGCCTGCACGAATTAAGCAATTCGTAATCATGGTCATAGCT = 10
